target: Cereblon/Ikaros (Homo sapiens, UniProt Q96SW2+Q13422); assay: PROTAC activity at CRBN/Ikaros in human OCI-Ly10 cells assessed as induction of Ikaros degradation measured after 24 hrs by MSD assay; assay type: cell-based
Sequence (Q96SW2 whole entry): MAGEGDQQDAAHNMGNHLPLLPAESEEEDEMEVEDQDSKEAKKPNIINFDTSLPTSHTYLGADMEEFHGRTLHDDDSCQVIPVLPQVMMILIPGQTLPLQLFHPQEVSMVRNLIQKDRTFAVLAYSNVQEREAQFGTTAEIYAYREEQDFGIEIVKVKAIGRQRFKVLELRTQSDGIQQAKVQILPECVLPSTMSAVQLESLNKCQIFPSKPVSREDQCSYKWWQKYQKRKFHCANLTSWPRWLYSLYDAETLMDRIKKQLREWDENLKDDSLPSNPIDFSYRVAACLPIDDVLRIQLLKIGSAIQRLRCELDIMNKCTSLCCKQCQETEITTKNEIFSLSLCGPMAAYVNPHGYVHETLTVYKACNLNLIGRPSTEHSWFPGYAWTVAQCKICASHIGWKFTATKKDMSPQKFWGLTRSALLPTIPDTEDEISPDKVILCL
Sequence (Q13422 whole entry): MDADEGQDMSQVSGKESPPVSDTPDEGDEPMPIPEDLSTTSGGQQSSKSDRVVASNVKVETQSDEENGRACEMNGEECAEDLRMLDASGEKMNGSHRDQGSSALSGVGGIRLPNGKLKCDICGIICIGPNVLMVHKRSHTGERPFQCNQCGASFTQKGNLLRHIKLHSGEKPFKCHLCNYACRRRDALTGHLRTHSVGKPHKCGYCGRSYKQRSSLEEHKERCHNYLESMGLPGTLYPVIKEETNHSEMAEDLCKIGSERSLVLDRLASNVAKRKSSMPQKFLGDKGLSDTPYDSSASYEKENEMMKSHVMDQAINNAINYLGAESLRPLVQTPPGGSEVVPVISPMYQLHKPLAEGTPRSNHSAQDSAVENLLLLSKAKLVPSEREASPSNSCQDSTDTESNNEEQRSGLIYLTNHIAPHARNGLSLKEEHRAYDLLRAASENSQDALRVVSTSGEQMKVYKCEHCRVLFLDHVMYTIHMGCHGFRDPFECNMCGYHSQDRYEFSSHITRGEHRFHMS
quantity-measured: log10 of DC50 (log10 of the value in nM)
Hello, just confirming the data are log10 of DC50 with units of nM.

Example cases with answers are listed next.
CC(C)(O)c1cc2c(cnn2CCCCCCCCCNc2cccc3c2C(=O)N(C2CCC(=O)NC2=O)C3=O)cc1NC(=O)c1cccc(C(F)(F)F)n1 (configuration not stated) = 1.75
COc1cc2nc([C@H]3CC[C@H](CN4CC5(CC(CCNc6cccc7c6C(=O)N(C6CCC(=O)NC6=O)C7=O)C5)C4)CC3)sc2cc1NC(=O)c1cccc(C(F)(F)F)n1 (some centres not stated) = 1.15
CN(CCCO[C@H]1C[C@H](Nc2cccc3c2C(=O)N(C2CCC(=O)NC2=O)C3=O)C1)C[C@H]1CC[C@H](n2cc3cc(NC(=O)c4cccc(C(F)(F)F)n4)c(C(F)F)cc3n2)CC1 (some centres not stated) = 1.23
CC(C)(O)c1cc2nn(CCCCCCCCCNc3cccc4c3C(=O)N(C3CCC(=O)NC3=O)C4=O)cc2cc1NC(=O)c1cccc(C(F)(F)F)n1 (configuration not stated) = 1.74
CN(C[C@H]1CC[C@H](n2cc3cc(NC(=O)c4cccc(C(F)(F)F)n4)c(C(C)(C)O)cc3n2)CC1)[C@H]1CC[C@@]2(CC1)C[C@H](Nc1cccc3c1C(=O)N(C1CCC(=O)NC1=O)C3=O)C2 (some centres not stated) = 1.28
CC(C)(O)c1cc2nn(CCCCCNCCCNc3cccc4c3C(=O)N(C3CCC(=O)NC3=O)C4=O)cc2cc1NC(=O)c1cccc(C(F)(F)F)n1 (configuration not stated) = 1.23

Report log10 of DC50 for each item below.
1. CN(CCCO[C@H]1C[C@H](Nc2cccc3c2C(=O)N(C2CCC(=O)NC2=O)C3=O)C1)C[C@H]1CC[C@H](n2cc3cc(NC(=O)c4cccc(C(F)(F)F)n4)c(C(C)(C)O)cc3n2)CC1 (some centres not stated)
2. CC(C)(O)c1cc2nn([C@H]3CC[C@H](CN4CCC5(CC4)CC(CNc4cccc6c4C(=O)N(C4CCC(=O)NC4=O)C6=O)C5)CC3)cc2cc1NC(=O)c1cccc(C(F)(F)F)n1 (some centres not stated)

Found:
[0.70, 0.78]

###

target: Protein cereblon (Homo sapiens, UniProt Q96SW2); assay: Binding affinity to CRBN (unknown origin) by HTRF assay
Sequence (Q96SW2 whole entry): as the sequence (Q96SW2 whole entry) above
So I've got a bunch of molecules here, and I need their pIC50 values.
Answers are plain numbers, as −log10 of the molar value.

Give measured pIC50 for every item shown.
1. CN(CCCOCCCNc1cccc2c1C(=O)N(C1CCC(=O)NC1=O)C2=O)C[C@H]1CC[C@H](n2cc3cc(NC(=O)c4cccc(C(F)(F)F)n4)c(C(C)(C)O)cc3n2)CC1 (stereo partly specified)
2. CC(C)(O)c1cc2nc([C@H]3CC[C@H](CN4CC5(CC(CCNc6cccc7c6C(=O)N([C@H]6CCC(=O)NC6=O)C7=O)C5)C4)CC3)sc2cc1NC(=O)c1cccc(C(F)(F)F)n1
3. COc1cc2nn([C@H]3CC[C@H](CN4CC5(CC(CCNc6cccc7c6C(=O)N(C6CCC(=O)NC6=O)C7=O)C5)C4)CC3)cc2cc1NC(=O)c1cccc(C(F)(F)F)n1 (stereo partly specified)
4. CC(C)(O)c1cc2nn([C@H]3CC[C@H](CN4CCC(O[C@H]5C[C@H](Nc6cccc7c6C(=O)N(C6CCC(=O)NC6=O)C7=O)C5)CC4)CC3)cc2cc1NC(=O)c1cccc(C(F)(F)F)n1 (stereo partly specified)
5. CN(CCCO[C@H]1C[C@H](Nc2cccc3c2C(=O)N(C2CCC(=O)NC2=O)C3=O)C1)C[C@H]1CC[C@H](n2cc3cc(NC(=O)c4cccc(C(F)(F)F)n4)ccc3n2)CC1 (stereo partly specified)
6. COc1cc2nn([C@H]3CC[C@H](CN(C)CCCO[C@H]4C[C@H](Nc5cccc6c5C(=O)N(C5CCC(=O)NC5=O)C6=O)C4)CC3)cc2cc1NC(=O)c1cccc(C(F)(F)F)n1 (stereo partly specified)
7. CN(C[C@H]1CC[C@H](n2cc3cc(NC(=O)c4cccc(C(F)(F)F)n4)c(C(C)(C)O)cc3n2)CC1)[C@H]1CC[C@@]2(CC1)C[C@H](Nc1cccc3c1C(=O)N(C1CCC(=O)NC1=O)C3=O)C2 (stereo partly specified)

Found:
7.49
8.52
7.57
7.59
7.62
7.64
8.30
